- experimentalSystem: Voltage-dependent L-type calcium channel subunit alpha-1C (Rattus norvegicus); note: assay procedure not described here
- Sequence (P22002 whole entry): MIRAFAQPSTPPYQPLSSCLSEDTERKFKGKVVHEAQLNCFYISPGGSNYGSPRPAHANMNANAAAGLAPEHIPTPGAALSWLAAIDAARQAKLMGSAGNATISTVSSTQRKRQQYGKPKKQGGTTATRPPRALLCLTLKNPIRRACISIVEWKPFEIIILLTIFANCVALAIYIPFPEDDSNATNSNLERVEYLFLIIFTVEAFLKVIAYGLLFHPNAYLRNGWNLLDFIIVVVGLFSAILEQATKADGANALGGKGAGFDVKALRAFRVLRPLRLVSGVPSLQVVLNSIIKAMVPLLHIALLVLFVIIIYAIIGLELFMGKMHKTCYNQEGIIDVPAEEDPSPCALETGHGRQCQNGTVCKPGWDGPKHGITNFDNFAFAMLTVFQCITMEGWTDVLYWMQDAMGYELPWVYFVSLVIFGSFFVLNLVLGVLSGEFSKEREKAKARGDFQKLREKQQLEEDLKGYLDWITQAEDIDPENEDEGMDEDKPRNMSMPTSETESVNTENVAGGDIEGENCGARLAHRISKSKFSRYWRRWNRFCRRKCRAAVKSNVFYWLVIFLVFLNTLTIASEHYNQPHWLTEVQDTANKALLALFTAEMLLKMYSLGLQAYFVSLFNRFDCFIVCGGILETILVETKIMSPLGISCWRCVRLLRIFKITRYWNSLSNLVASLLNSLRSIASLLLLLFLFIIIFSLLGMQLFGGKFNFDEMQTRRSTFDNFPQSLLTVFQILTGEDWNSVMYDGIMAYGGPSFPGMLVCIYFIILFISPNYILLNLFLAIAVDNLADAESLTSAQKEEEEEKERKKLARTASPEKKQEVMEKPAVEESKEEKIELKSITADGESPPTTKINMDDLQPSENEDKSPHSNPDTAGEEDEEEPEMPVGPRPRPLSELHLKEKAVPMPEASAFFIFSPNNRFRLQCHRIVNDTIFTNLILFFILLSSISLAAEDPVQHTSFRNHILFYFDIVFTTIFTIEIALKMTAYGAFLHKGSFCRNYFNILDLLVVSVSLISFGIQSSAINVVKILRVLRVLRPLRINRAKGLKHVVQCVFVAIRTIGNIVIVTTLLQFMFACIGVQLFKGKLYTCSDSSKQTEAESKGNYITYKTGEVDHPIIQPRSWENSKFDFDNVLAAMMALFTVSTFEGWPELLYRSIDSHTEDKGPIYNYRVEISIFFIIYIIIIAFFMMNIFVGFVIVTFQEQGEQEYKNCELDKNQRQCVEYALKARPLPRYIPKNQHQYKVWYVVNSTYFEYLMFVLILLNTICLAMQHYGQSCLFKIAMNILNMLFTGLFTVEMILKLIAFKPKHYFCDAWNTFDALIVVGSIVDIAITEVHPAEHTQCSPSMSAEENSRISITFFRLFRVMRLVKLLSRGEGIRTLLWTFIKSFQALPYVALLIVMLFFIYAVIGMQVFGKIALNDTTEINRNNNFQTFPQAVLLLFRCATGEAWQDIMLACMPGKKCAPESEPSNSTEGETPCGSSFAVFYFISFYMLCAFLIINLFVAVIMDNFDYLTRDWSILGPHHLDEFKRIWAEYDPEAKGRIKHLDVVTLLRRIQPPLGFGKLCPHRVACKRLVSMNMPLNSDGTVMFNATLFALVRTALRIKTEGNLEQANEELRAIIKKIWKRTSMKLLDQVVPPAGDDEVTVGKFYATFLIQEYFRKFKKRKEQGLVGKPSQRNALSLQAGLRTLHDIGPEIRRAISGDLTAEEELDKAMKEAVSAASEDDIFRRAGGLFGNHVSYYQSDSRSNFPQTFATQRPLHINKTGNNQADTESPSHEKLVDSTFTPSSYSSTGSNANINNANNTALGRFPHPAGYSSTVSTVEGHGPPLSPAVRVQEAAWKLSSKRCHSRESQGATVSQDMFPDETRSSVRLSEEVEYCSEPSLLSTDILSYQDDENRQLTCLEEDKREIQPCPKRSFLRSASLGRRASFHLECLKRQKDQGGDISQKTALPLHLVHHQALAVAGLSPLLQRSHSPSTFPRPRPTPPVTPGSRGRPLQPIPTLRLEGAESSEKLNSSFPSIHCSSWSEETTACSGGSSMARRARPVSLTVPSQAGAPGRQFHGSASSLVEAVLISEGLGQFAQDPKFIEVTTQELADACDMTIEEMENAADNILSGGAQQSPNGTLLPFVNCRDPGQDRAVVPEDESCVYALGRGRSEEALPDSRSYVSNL
- Type: functional
valueType: AC50

[in] I am curious: what AC50 value has been reported for CO[C@@H]1[C@@H](O[C@@H]2O[C@H](C)[C@@H](O[C@H]3C[C@@](C)(O)[C@@H](OC(=O)CC(C)C)[C@H](C)O3)[C@H](N(C)C)[C@H]2O)[C@@H](CC=O)C[C@@H](C)[C@@H](O)/C=C/C=C/C[C@@H](C)OC(=O)C[C@H]1OC(C)=O ?
[out] > 10 µM

[in] What do you get for C[C@]12CC[C@H]3[C@@H](CCC4=CC(=O)CC[C@@]43C)[C@@H]1CC[C@@H]2O ?
[out] > 10 µM

[in] What do you get for OC(CNCC(O)C1CCc2cc(F)ccc2O1)C1CCc2cc(F)ccc2O1 (stereo not given) ?
[out] 24 µM

[in] What do you get for CCCN1C[C@H](CSC)C[C@@H]2c3cccc4[nH]cc(c34)C[C@H]21 [PERGOLIDE] ?
[out] > 10 µM

[in] What do you get for CC(C(=O)O)c1ccc(N2Cc3ccccc3C2=O)cc1 (stereo not given) ?
[out] > 30 µM

[in] What do you get for O=C(O[C@H]1C[C@H]2CC[C@@H](C1)[N+]21CCCC1)C(O)(c1ccccc1)c1ccccc1 ?
[out] > 30 µM

[in] What do you get for NCC[C@H](O)C(=O)N[C@@H]1C[C@H](N)[C@@H](O[C@H]2O[C@H](CN)[C@@H](O)[C@H](O)[C@H]2O)[C@H](O)[C@H]1O[C@H]1O[C@H](CO)[C@@H](O)[C@H](N)[C@H]1O ?
[out] > 10 µM

[in] What do you get for O=C(O)/C=C/c1ccc(Cn2ccnc2)cc1 ?
[out] > 30 µM

[in] What do you get for C=CCN1C[C@H](C(=O)N(CCCN(C)C)C(=O)NCC)C[C@@H]2c3cccc4[nH]cc(c34)C[C@H]21 ?
[out] > 10 µM

[in] What do you get for O=P1(NCCCl)OCCCN1CCCl (stereo not given) [IFOSFAMIDE] ?
[out] > 30 µM

[in] What do you get for COc1cc2c(N)nc(N3CCN(C(=O)OCC(C)(C)O)CC3)nc2c(OC)c1OC ?
[out] > 30 µM

[in] What do you get for O=C(O)CCCCCCNC1c2ccccc2CCc2ccccc21 ?
[out] > 30 µM

[in] What do you get for COC(=O)C1=C(C)NC(C)=C(C(=O)OC(C)(C)CN(C)CCC(c2ccccc2)c2ccccc2)C1c1cccc([N+](=O)[O-])c1 (stereo not given) ?
[out] 0.046 µM

[in] What do you get for c1ccc([C@H]2CN3CCSC3=N2)cc1 ?
[out] > 30 µM

[in] What do you get for C#C[C@]1(O)CC[C@H]2[C@@H]3CCc4cc(OC5CCCC5)ccc4[C@H]3CC[C@@]21C ?
[out] > 10 µM

====

Please respond with reported AC50 for every item in the list.
Target sequence: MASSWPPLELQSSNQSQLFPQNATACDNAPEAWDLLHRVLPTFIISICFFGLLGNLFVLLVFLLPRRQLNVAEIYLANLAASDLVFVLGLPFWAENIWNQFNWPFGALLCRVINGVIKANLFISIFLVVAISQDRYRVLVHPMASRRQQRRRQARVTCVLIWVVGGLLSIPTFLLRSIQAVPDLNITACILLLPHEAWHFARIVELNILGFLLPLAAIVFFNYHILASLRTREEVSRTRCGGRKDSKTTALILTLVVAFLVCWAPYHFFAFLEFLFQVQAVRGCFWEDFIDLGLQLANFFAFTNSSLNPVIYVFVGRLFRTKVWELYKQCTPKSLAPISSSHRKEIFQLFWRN

[in] I am curious: what AC50 value has been reported for CCc1c(Cl)c(O)c(Cl)c(O)c1C(=O)O[C@H]1[C@H](O)[C@H](OC)[C@H](OC/C2=C\C=C\C[C@H](O)/C(C)=C/[C@H](CC)[C@@H](O[C@@H]3OC(C)(C)[C@@H](OC(=O)C(C)C)[C@H](O)[C@@H]3O)/C(C)=C/C(C)=C/C[C@@H]([C@@H](C)O)OC2=O)O[C@@H]1C ?
[out] > 30 µM

[in] What do you get for CCCCc1ncc(/C=C(\Cc2cccs2)C(=O)O)n1Cc1ccc(C(=O)O)cc1 ?
[out] > 30 µM

[in] What do you get for CCCCCNC(=N)N/N=C/c1c[nH]c2ccc(OC)cc12 ?
[out] > 30 µM
